assayed-target: His-tagged Parp-1 (Homo sapiens, UniProt P09874)
Sequence (P09874 whole entry): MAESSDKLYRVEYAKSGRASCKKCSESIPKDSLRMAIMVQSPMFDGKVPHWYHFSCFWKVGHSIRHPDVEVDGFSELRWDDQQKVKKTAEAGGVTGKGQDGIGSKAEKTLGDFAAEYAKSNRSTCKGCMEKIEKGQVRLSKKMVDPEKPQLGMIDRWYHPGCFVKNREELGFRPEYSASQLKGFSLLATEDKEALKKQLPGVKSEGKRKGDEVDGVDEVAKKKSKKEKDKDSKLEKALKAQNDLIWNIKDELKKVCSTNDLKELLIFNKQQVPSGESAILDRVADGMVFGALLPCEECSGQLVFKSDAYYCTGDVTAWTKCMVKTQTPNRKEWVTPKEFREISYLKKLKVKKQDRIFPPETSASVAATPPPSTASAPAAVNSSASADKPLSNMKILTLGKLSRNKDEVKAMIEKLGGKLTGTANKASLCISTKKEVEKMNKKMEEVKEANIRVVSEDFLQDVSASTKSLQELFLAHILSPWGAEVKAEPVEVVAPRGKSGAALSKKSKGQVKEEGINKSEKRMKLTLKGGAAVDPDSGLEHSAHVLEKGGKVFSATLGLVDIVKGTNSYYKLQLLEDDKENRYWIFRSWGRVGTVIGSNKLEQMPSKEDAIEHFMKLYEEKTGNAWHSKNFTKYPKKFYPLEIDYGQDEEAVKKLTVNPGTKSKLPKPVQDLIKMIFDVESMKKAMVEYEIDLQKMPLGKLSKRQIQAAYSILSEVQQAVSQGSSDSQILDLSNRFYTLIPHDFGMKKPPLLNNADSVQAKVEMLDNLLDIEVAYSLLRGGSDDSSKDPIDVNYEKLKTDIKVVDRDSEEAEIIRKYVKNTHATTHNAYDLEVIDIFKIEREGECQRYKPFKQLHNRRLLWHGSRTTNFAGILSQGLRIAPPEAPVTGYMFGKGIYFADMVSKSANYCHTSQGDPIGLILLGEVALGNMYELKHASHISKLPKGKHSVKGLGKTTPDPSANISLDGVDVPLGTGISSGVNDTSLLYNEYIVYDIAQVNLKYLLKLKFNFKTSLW
pIC50: −log10 of the molar value.
Below, each entry is listed alongside its reported pIC50.
readout-kind: pIC50

compound	measurement
CC(C)(O)c1ccc(-c2cn3cccc3c(=O)[nH]2)cc1 [Compound A29]	5.52 to 6.52
CC(C)(C)c1ccc(-c2cn3cccc3c(=O)[nH]2)cc1 [Compound A11]	4.30 to 5.52
Cn1cc(-c2ccc(-c3cn4cccc4c(=O)[nH]3)cc2)cn1 [Compound A25]	4.30 to 5.52
O=c1[nH]c(-c2ccc(C3CCNCC3)cc2)cn2cccc12 [Compound A75]	4.30 to 5.52
Cc1cc2c(=O)[nH]c(-c3ccc(C(C)(C)O)cc3)cn2n1 [Compound A46]	5.52 to 6.52
CCC(O)(CC)c1ccc(-c2cn3cc(F)cc3c(=O)[nH]2)cc1 [Compound A61]	5.52 to 6.52
CC(C)(OCCO)c1ccc(-c2cn3cc(F)cc3c(=O)[nH]2)cc1 [Compound A70]	5.52 to 6.52
Cc1ccc(-c2cn3cccc3c(=O)[nH]2)cc1 [Compound A12, 3-p-tolyl-2H-pyrrolo[1,2-a]pyrazin-1-one]	5.52 to 6.52
COCCOC(C)(C)c1ccc(-c2cn3cc(F)cc3c(=O)[nH]2)cc1 [Compound A71]	4.30 to 5.52

###

Here's a batch of compounds along with measured pIC50 for GST-tagged Tnks-1 (1023-1327 aa) (Homo sapiens).
pIC50: −log10 of the molar value.
readout-kind: pIC50

compound	assayed-target	readout-kind	measurement
CC(C)(OCCO)c1ccc(-c2cn3cc(F)cc3c(=O)[nH]2)cc1 [Compound A70]	GST-tagged Tnks-1 (1023-1327 aa) (Homo sapiens)	pIC50	> 6.52
Cc1cc2c(=O)[nH]c(-c3ccc(N4CCCC4)cc3)cn2n1 [Compound A37]	GST-tagged Tnks-1 (1023-1327 aa) (Homo sapiens)	pIC50	> 6.52
CC(C)(F)c1ccc(-c2cn3cc(F)cc3c(=O)[nH]2)cc1 [Compound A63]	GST-tagged Tnks-1 (1023-1327 aa) (Homo sapiens)	pIC50	> 6.52
CC(C)(C)c1ccc(-c2cn3cccc3c(=O)[nH]2)cc1 [Compound A11]	GST-tagged Tnks-1 (1023-1327 aa) (Homo sapiens)	pIC50	> 6.52
CC(C)(O)c1ccc(-c2cn3cc(Cl)cc3c(=O)[nH]2)cc1 [Compound A60]	GST-tagged Tnks-1 (1023-1327 aa) (Homo sapiens)	pIC50	> 6.52
O=c1[nH]c(-c2ccc(C3CCNC3)cc2)cn2cccc12 (stereo not drawn) [Compound A76]	GST-tagged Tnks-1 (1023-1327 aa) (Homo sapiens)	pIC50	> 6.52
Cc1cc2c(=O)[nH]c(-c3cnn(C(C)(C)C)c3)cn2c1 [Compound A57]	GST-tagged Tnks-1 (1023-1327 aa) (Homo sapiens)	pIC50	> 6.52
CC(C)(N)c1ccc(-c2cn3cc(F)cc3c(=O)[nH]2)cc1 [Compound A72]	GST-tagged Tnks-1 (1023-1327 aa) (Homo sapiens)	pIC50	> 6.52
O=c1[nH]c(-c2ccc(C3(O)COC3)cc2)cn2cccc12 [Compound A110]	GST-tagged Tnks-1 (1023-1327 aa) (Homo sapiens)	pIC50	> 6.52
